# experimental target: T1, hFc-tagged human 4-1BB extracellular domain protein (4-1BB-hFc) (human, UniProt Q07011 24-186, limits assumed)
# T1 construct: also called immunogen A; 4-1BB^ECD-hFc; not shown: human IgG Fc fragment (hFc) of the pCpC vector
# protocol summary: ELISA, coated human 4-1BB-hFc; Ab 2 ug/ml
quantity measured: OD450 nm (OD450 nm)
A number alone suffices; assume OD450 nm.

11H10C9 (antibody, V domains shown) VH: QVQLVESGGGVVQPGRSLRLSCAASGFTFSSYAMHWVRQAPGKGLEWVAIIWYDGSNQYYADSVKGRFTISRDNSMNTLYLQMNSLRAEDTAVYYCARVEQWLVSYFDFWGQGTLVTVSS VL: EIVMTQSPATLSVSPGERATLSCRASQSVSSNLAWYQQKPGQVPRLLIYGASTRATGIPARFSGSGSGTEFTLTISSLQSEDFAVYYCQQYNNWPTFGGGTKVEIK : 3.59
170D7F2 (antibody, V domains shown) VH: QVQLVQSGAEVKKPGASVKVSCKASGYTFTSYDINWVRQATGQGLEWMGWMNPNSGNTGYAQKFQGRVTMTRNTSISTAYMELSSLRSEDTAVYYCARETGPFDYWGQGTLVTVSS VL: DIQMTQSPSSLSASVGDRVTITCRASQRINNYLNWYQQKPGKAPKLLIYGASSLQSGVPSRFSGSGSGTDFTLTISSLQPEDFATYYCQQSYSTPFTFGPGTKVDIK : 3.49
119B6G5 (antibody, V domains shown) VH: EVQLLESGGGLVQPGGSLRLSCAASGFTFSNYAMSWVRQGPGKGLEWVSTIIGSGDSTYYTDSVKGRFTISRDNSKNTLFLQMNSLRAEDTAVYYCARDKSGWYYFDYWGQGTLVTVSS VL: DIQMTQSPSTLSASVGDRVTITCRASQSISNWLAWYQQKPGKAPKLLIYKASSLESGVPSRFSGSGSGTEFTLTISSLQPDDFATYYCQQYNDYFPITFGQGTRLEIK : 2.76
15G10D4 (antibody, V domains shown) VH: QVQLVESGGGVVQPGRSLRLSCAASGFSFSSYAMHWVRQAPGKGLEWVAIIWYDGSNQYYADSVKGRFTISRDNSKNTLYLQMNSLRAEDTAVYYCARVKQWLVSYFDYWGQGTLVTVSS VL: EIVMTQSPATLSVSPGERATLSCRASQSVSSNLAWYQQKPGQVPRLLIYGASTRATGIPARFSGSGSGTEFSLIISSLQSEDFAVYYCQQYNNWPTFGGGTKVEIK : 3.61

[Q] # input binder: 118F3A2 (antibody, V domains shown) VH: QVQLQQWGAGLLKPSETLSLTCGVYGGSFSTNYWSWIRQSPGKGLEWIGEINHSGNTEYNPSLKSRLTISIDTSKNQFSLKLTSVTAADTAVYYCARMGYHSPSFDFWGQGVLVTVSS VL: KIVMTQSPATLSVSPGERATLPCRVSQGIGSNLAWYQQKPGQAPRLLIYGASTRATGVPARFSGSGSGSEFTLTISSLQSEDLALYYCQQYNNWPLTFGGGTKVEIK ; wanted: its OD450 nm
[A] 2.72

[Q] # input binder: 52F4G2 (antibody, V domains shown) VH: QVQLQESGPGLVKPSETLSLTCAVSGYSISSGYYWGWIRQPPGKGLEWIGSIFHSGSSYYNPSLKSRVTISVDTSKNQFSLKLRSVTAADTAVYYCARESSGWNCFDYWGQGTLVTVSS VL: DIQMTQSPSTLSASVGDRVTITCRASQTISTWLAWYQQKPGKAPKLLIYKASNLESGVPSRFSGSGSGTEFTLTISSLQPDDFATYYCQQYNSYSITFGQGTRLEIK ; wanted: its OD450 nm
[A] 3.1

[Q] # input binder: 172E3E3 (antibody, V domains shown) VH: QVQLQESGPGLVKPSGTLSLTCAVSGGSISSSNWWSWVRQPPGKGLEWIGEIYHSGSTNYNPSLKSRVTISVDKSKNQLSLNLSSVTAADTAVYYCARQGGVAGTLYWYFDLWGRGTLVTVSS VL: DIVMTQSPLSLPVTPGEPASISCRSSQGLLHSNGYNYLDWYLQKPGQSPQLLIYLGSNRASGVPDRFIGSGSGTDFTLKIRRVEAEDVGVYYCMQVLQTPWTFGQGTKVEIK ; wanted: its OD450 nm
[A] 3.44

Origin of the recorded values: patent US20200347144A1
